system tested: human MET ECD mutant E (mutations 2, 3, 4) (human) (UniProt P08581)
experiment description: ELISA, MET ECD mutant in solid phase, mAb 0-50 nM
% binding (EMAX) compared to WT MET by entry:
Write the number in % without appending the unit.

| binder | property measured | test value |
| --- | --- | --- |
| chimeric llama-human IgG1 mAb 71G2 (antibody, V domains shown) VH: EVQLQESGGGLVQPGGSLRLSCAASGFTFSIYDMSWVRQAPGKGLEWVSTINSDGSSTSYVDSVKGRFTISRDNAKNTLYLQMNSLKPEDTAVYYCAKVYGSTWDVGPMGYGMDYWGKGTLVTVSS VL: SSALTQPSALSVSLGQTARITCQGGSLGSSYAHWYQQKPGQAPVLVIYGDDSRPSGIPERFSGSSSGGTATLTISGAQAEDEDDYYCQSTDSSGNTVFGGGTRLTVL | % binding (EMAX) compared to WT MET | 41.4 |
| chimeric llama-human IgG1 mAb 71D6 (antibody, V domains shown) VH: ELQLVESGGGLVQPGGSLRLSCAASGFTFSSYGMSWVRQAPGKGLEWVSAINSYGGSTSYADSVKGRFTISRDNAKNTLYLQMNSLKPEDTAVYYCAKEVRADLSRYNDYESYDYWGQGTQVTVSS VL: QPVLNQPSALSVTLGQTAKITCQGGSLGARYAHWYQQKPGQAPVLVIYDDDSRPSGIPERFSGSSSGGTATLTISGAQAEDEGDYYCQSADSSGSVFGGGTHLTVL | % binding (EMAX) compared to WT MET | 43.6 |
| chimeric llama-human IgG1 mAb 71D4 (antibody, V domains shown) VH: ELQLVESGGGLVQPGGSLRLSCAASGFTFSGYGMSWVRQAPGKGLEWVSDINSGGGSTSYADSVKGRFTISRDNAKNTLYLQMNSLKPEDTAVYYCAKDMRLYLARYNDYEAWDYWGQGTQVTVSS VL: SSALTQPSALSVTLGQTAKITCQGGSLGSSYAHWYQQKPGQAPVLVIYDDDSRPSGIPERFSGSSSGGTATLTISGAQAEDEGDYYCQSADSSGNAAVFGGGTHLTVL | % binding (EMAX) compared to WT MET | 57.2 |
| chimeric llama-human IgG1 mAb 71C3 (antibody, V domains shown) VH: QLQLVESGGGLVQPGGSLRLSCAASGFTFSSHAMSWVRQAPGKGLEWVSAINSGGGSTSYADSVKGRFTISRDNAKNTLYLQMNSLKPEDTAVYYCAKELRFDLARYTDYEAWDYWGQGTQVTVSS VL: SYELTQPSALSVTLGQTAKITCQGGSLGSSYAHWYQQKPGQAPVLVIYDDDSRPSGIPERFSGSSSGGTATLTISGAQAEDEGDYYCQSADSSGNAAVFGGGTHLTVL | % binding (EMAX) compared to WT MET | 59.6 |

Consider the binder chimeric llama-human IgG1 mAb 71A3 (antibody, V domains shown) VH: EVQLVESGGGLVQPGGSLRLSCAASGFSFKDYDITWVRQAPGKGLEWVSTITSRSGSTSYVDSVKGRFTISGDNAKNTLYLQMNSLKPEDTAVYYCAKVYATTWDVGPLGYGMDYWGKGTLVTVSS VL: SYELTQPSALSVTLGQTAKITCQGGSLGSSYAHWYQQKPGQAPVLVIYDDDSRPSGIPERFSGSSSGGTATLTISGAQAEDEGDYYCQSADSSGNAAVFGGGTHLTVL and give its measured % binding (EMAX) compared to WT MET.
65.4
